Origin of the recorded values: BigSolDB 2.1

- assay_context: in 1,4-dioxane, 323.15 K
experimental_readout: solubility (mole fraction)

{"columns": ["sample_smiles", "result_number"],
 "data": [
  ["CC(C)c1ccc2sc3ccccc3c(=O)c2c1", 0.543]
]}

###

- assay_context: in ethanol, 312.15 K

{"columns": ["sample_smiles", "solubility (mole fraction)"],
 "data": [
  ["CC(C)c1ccc2sc3ccccc3c(=O)c2c1", 0.0703]
]}

###

- assay_context: in methanol, 320.15 K

{"columns": ["sample_smiles", "solubility (mole fraction)"],
 "data": [
  ["CC(C)c1ccc2sc3ccccc3c(=O)c2c1", 0.0264]
]}

###

- assay_context: in ethyl acetate, 314.15 K
experimental_readout: solubility (mole fraction)

{"columns": ["sample_smiles", "result_number"],
 "data": [
  ["CC(C)c1ccc2sc3ccccc3c(=O)c2c1", 0.325]
]}
